Reported selectivity ratio values are given for each entry in this list.
# METHOD: Selectivity index, ratio of CC50 for human MT4 cells to EC50 for ritonavir-resistant HIV1 3B/RIT
# Format: toxicity, cell-based
# CONDITION_CONTEXT: read-out: Ratio CC50/EC50
# output: bare number, no unit

Please review the following examples before continuing.
LINE_NOTATION: O=C(O)CC[C@H](NC(=O)c1ccccc1[Se][Se]c1ccccc1C(=O)N[C@@H](CCC(=O)O)C(=O)O)C(=O)O
VALUE: 20
--
LINE_NOTATION: O=C(O)CNC(=O)c1ccccc1[Se][Se]c1ccccc1C(=O)NCC(=O)O
VALUE: 36

Proceed to the following item.
[in] Respond only with selectivity ratio recorded for "CC[C@H](C)[C@H](NC(=O)c1ccccc1[Se][Se]c1ccccc1C(=O)N[C@H](C(=O)O)[C@@H](C)CC)C(=O)O"
[out] 6

###

Reported selectivity ratio values are given for each entry in this list.
# METHOD: Selectivity index, ratio of CC50 for human MT4 cells to EC50 for ritonavir-resistant HIV1 B12 harboring […] L10I/I15V/I54V/L63P/V82A/I85V mutant
# Type: toxicity, cell-based
# CONDITION_CONTEXT: read-out: Ratio CC50/EC50

Please review the following examples before continuing.
LINE_NOTATION: CC[C@H](C)[C@H](NC(=O)c1ccccc1[Se][Se]c1ccccc1C(=O)N[C@H](C(=O)O)[C@@H](C)CC)C(=O)O
selectivity ratio: 6
//
LINE_NOTATION: O=C(O)CC[C@H](NC(=O)c1ccccc1[Se][Se]c1ccccc1C(=O)N[C@@H](CCC(=O)O)C(=O)O)C(=O)O
selectivity ratio: 8

Proceed to the following item.
[in] Respond only with selectivity ratio recorded for "O=C(O)CNC(=O)c1ccccc1[Se][Se]c1ccccc1C(=O)NCC(=O)O"
[out] 18

###

Reported selectivity ratio values are given for each entry in this list.
# METHOD: Selectivity index, ratio of CC50 for human MT4 cells to EC50 for HIV1 3B
# Assay type: toxicity, cell-based
# CONDITION_CONTEXT: read-out: Ratio CC50/EC50

Please review the following examples before continuing.
LINE_NOTATION: O=C(O)[C@@H]1CCCN1C(=O)c1ccccc1[Se][Se]c1ccccc1C(=O)N1CCC[C@H]1C(=O)O
selectivity ratio: < 1
--
LINE_NOTATION: NS(=O)(=O)c1ccc(OC(=O)c2ccccc2[Se][Se]c2ccccc2C(=O)Oc2ccc(S(N)(=O)=O)cc2)cc1
selectivity ratio: < 1
--
LINE_NOTATION: O=C(O)CNC(=O)c1ccccc1[Se][Se]c1ccccc1C(=O)NCC(=O)O
selectivity ratio: 37
--
LINE_NOTATION: C[C@H](NC(=O)c1ccccc1[Se][Se]c1ccccc1C(=O)N[C@@H](C)C(=O)O)C(=O)O
selectivity ratio: 13
--
LINE_NOTATION: COC(=O)[C@@H]1CCCN1C(=O)c1ccccc1[Se][Se]c1ccccc1C(=O)N1CCC[C@H]1C(=O)OC
selectivity ratio: ≤ 2
--
LINE_NOTATION: O=C(O)CC[C@H](NC(=O)c1ccccc1[Se][Se]c1ccccc1C(=O)N[C@@H](CCC(=O)O)C(=O)O)C(=O)O
selectivity ratio: 32
--
LINE_NOTATION: O=C(O)CNC(=O)c1ccccc1SSc1ccccc1C(=O)NCC(=O)O
selectivity ratio: < 1
--
LINE_NOTATION: Cc1ccnc2c1NC(=O)c1cccnc1N2C1CC1
selectivity ratio: > 60
--
LINE_NOTATION: NS(=O)(=O)c1ccc(NC(=O)c2ccccc2SSc2ccccc2C(=O)Nc2ccc(S(N)(=O)=O)cc2)cc1
selectivity ratio: 6
--
LINE_NOTATION: COC(=O)C[C@H](NC(=O)c1ccccc1[Se][Se]c1ccccc1C(=O)N[C@@H](CC(=O)OC)C(=O)OC)C(=O)OC
selectivity ratio: ≤ 3

[in] Respond only with selectivity ratio recorded for "CCOC(=O)CC[C@H](NC(=O)c1ccccc1[Se][Se]c1ccccc1C(=O)N[C@@H](CCC(=O)OCC)C(=O)OCC)C(=O)OCC"
[out] ≤ 4

[in] Respond only with selectivity ratio recorded for "CC(C)[C@H](NC(=O)c1ccccc1[Se][Se]c1ccccc1C(=O)N[C@H](C(=O)O)C(C)C)C(=O)O"
[out] 10

Reference source: ChEMBL document CHEMBL3745620
